src = the supplement of paper PMC10567573

B1: RAB40B (parent)
chain: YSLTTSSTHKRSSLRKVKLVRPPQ

# Variants of: B1
# assay_text: protein stability index of a GFP-peptide fusion (GPS, HEK-293T) (PSI 1-6); higher = more stable;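 also: lentivirally expressed fusions sorted by FACS into six bins by GFP to DsRed ratio, PSI derived from sequencing read proportions per bin multiplied by bin number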
# condition_context: c terminus: a fixed tail appended
readout_type: protein stability index
Please reply with the number alone, leaving off any unit.

Prompt line: Param item = T4R ; retrieve measured protein stability index.
Response line: 3.33

Prompt line: Repeat for the following variant: R21F
Response line: 2.17

Prompt line: S7P , same question.
Response line: 3.47

Prompt line: What about this variant? K16L
Response line: 2.35

Prompt line: Now give it for R11N too.
Response line: 2.87

Prompt line: Then this variant: T4P
Response line: 3.16

Prompt line: Would you mind doing R11S as well?
Response line: 2.77

Prompt line: Now consider K10M and answer again.
Response line: 3.3

Prompt line: Follow-up item: T8I
Response line: 2.63

Prompt line: Then what about the variant R15P ?
Response line: 3.47

Prompt line: Now this one: S6C
Response line: 2.95

Prompt line: Then this variant: L14D
Response line: 3.83

Prompt line: Same question for V20I please.
Response line: 2.48

Prompt line: Another: K18A
Response line: 3.2

Prompt line: And V17K ?
Response line: 3.47

Prompt line: Next variant up: H9K
Response line: 3.29

Prompt line: // query: R11M
Response line: 2.99

Prompt line: Cool, now S2R
Response line: 3.56

Prompt line: Follow-up item: T4K
Response line: 3.33

Prompt line: R15F , same question.
Response line: 1.94

Prompt line: Then this variant: S12F
Response line: 2.17

Prompt line: Moving on to T5N
Response line: 3.83

Prompt line: Also need S7Y , thanks.
Response line: 2.35

Prompt line: Further, for H9I ?
Response line: 2.61

Prompt line: Next entry: R11T
Response line: 3.67

Prompt line: Query R11Q next
Response line: 3.46

Prompt line: Please answer likewise for V20D
Response line: 3.66

Prompt line: Next variant up: T5I
Response line: 1.86

Prompt line: How about this variant: T8L
Response line: 2.43

Prompt line: Thanks! And S6A ?
Response line: 2.88

Prompt line: Request: S13F
Response line: 2.12

Prompt line: K16I ?
Response line: 1.95

Prompt line: Moving on to the next variant: T8M
Response line: 2.98

Prompt line: Consider next the variant K16W in the same way.
Response line: 2.14

Prompt line: Next variant up: L3P
Response line: 2.96

Prompt line: // same read-out, input: H9L
Response line: 3.26

Prompt line: Then P22M ?
Response line: 2.76

Prompt line: Quick one: S7C
Response line: 2.92

Prompt line: Param item: S13I
Response line: 2.74

Prompt line: Request: S12A
Response line: 2.97

Prompt line: Next up: R11W
Response line: 1.87

Prompt line: Another variant: H9R
Response line: 3.29

Prompt line: Next entry: T4F
Response line: 1.77

Prompt line: Same lookup for K10C , please.
Response line: 2.3

Prompt line: Try Q24R next.
Response line: 2.62

Prompt line: Let us now turn to V20S
Response line: 3.35
